biological target: hCA XII (Homo sapiens, UniProt O43570); test: stopped-flow CO2 hydration assay, hCA XII; assay type: biochemical; conditions: ratio of KI hCA I to KI hCA XII
Sequence (O43570 25-354): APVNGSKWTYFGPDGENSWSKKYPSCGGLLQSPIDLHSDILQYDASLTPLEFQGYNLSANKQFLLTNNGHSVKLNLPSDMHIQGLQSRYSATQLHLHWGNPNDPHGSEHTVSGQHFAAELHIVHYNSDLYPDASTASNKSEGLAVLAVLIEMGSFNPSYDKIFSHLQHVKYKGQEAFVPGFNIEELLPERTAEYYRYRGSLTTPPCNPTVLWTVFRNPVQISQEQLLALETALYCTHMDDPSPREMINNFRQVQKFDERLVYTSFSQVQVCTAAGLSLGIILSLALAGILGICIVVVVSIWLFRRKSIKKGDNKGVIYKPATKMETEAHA
Under this convention, MET denotes SI I/XII strictly below 40 and NOT MET denotes SI I/XII at or above 40.

Below 40 on SI I/XII? Entry COCCOc1cc2ncnc(Nc3cccc(-c4cn(CCOCCOCCOCCOCCOCCNC(=O)Nc5ccc(S(N)(=O)=O)cc5)nn4)c3)c2cc1OCCOC [compound 12b]
NOT MET

Below 40 on SI I/XII? Entry "COCCOc1cc2ncnc(Nc3cccc(-c4cn(CCOCCOCCOCCNC(=S)NCc5ccc(S(N)(=O)=O)cc5)nn4)c3)c2cc1OCCOC"
NOT MET

Below 40 on SI I/XII? Entry "COCCOc1cc2ncnc(Nc3cccc(-c4cn(CCOCCOCCOCCOCCOCCNC(=O)Nc5ccc6oc(=O)ccc6c5)nn4)c3)c2cc1OCCOC"
MET

Below 40 on SI I/XII? Entry COCCOc1cc2ncnc(Nc3cccc(-c4cn(CCOCCOCCOCCOCCOCCNC(=O)Nc5cccc(S(N)(=O)=O)c5)nn4)c3)c2cc1OCCOC [compound 12a]
MET

Below 40 on SI I/XII? Entry "COCCOc1cc2ncnc(Nc3cccc(-c4cn(CCOCCOCCOCCNC(=S)NCCc5ccc(S(N)(=O)=O)cc5)nn4)c3)c2cc1OCCOC"
NOT MET

Below 40 on SI I/XII? Entry Cc1cn([C@H]2C[C@H](N=[N+]=[N-])[C@@H](CO)O2)c(=O)[nH]c1=O [AZT, azidothymidine, reference compound]
NOT MET

Below 40 on SI I/XII? Entry COCCOc1cc2ncnc(Nc3cccc(-c4cn(CCOCCOCCOCCOCCOCCNC(=S)NCc5ccc(S(N)(=O)=O)cc5)nn4)c3)c2cc1OCCOC [compound 14c]
MET

Below 40 on SI I/XII? Entry COCCOc1cc2ncnc(Nc3cccc(-c4cn(CCOCCOCCOCCOCCOCCC(=O)NCc5ccc(S(N)(=O)=O)cc5)nn4)c3)c2cc1OCCOC [compound 10a]
MET

Below 40 on SI I/XII? Entry "COCCOc1cc2ncnc(Nc3cccc(-c4cn(CCOCCOCCOCCNC(=O)Nc5cccc(S(N)(=O)=O)c5)nn4)c3)c2cc1OCCOC"
NOT MET

Below 40 on SI I/XII? Entry "COCCOc1cc2ncnc(Nc3cccc(-c4cn(CCOCCOCCOCCNC(=S)Nc5ccc(S(N)(=O)=O)cc5)nn4)c3)c2cc1OCCOC"
NOT MET

Below 40 on SI I/XII? Entry COCCOc1cc2ncnc(Nc3cccc(-c4cn(CCOCCOCCOCCOCCOCCNC(=S)NCCc5ccc(S(N)(=O)=O)cc5)nn4)c3)c2cc1OCCOC [compound 14d]
MET

Below 40 on SI I/XII? Entry COCCOc1cc2ncnc(Nc3cccc(-c4cn(CCOCCOCCOCCOCCOCCNC(=O)NCc5ccc(S(N)(=O)=O)cc5)nn4)c3)c2cc1OCCOC [compound 12c]
MET

Cited source: paper PMC12243159
